Target: full-length human RORγt (Homo sapiens)
Construct: expressed in transfected cells; host or cells: HEK293T, transiently transfected with pCMV-BD-ROR
Sequence (P51449 1-497 isoform P51449-2): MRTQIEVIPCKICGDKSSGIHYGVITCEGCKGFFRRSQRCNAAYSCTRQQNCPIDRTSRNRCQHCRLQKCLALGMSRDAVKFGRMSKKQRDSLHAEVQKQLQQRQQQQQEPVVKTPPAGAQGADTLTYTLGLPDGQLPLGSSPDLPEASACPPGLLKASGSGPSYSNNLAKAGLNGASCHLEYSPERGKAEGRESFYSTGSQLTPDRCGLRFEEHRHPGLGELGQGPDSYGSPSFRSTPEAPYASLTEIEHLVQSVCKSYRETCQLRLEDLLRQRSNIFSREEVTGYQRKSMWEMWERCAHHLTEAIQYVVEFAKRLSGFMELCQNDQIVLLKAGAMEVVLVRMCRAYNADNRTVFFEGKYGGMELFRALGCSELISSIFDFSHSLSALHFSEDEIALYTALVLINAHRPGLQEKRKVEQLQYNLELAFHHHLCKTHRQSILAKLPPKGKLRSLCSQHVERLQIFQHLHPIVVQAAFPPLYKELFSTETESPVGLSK
Experiment: RORγt (full-length human) Reporter Assay, Conditions A
Format: cell-based
Conditions: HEK293T cells, GAL4-DBD-RORγt, luciferase; read-out: RORγt (FL) Reporter Assay A, IC50
OBSERVED_PROPERTY: IC50 (nM)
Report the value in nM with no unit label.

Check out these entries, answers already filled in.
[
  {
    "MOLECULE": "CC(C)(O)Cc1nnc(-c2nc(C(=O)N3CC[C@H](F)C3)c(-c3ccc(C(O)(C(F)(F)F)C(F)(F)F)c(Cl)c3Cl)s2)o1",
    "SYSTEM_TESTED": "full-length human RORγt (Homo sapiens)",
    "UNIT_ANNOTATION": "nM",
    "REPORTED_RESULT": 370
  },
  {
    "MOLECULE": "CCN(C(=O)c1nc(-c2nnc(C(C)(C)O)o2)sc1-c1ccc(S(=O)(=O)N[C@@H](C)C(F)(F)F)c(Cl)c1Cl)C(C)C",
    "SYSTEM_TESTED": "full-length human RORγt (Homo sapiens)",
    "UNIT_ANNOTATION": "nM",
    "REPORTED_RESULT": 38
  },
  {
    "MOLECULE": "C[C@H](NS(=O)(=O)c1ccc(-c2sc(-c3nnc(C(C)(C)O)o3)nc2C(=O)N2CCOC[C@@H]2C)c(Cl)c1Cl)C(F)(F)F",
    "SYSTEM_TESTED": "full-length human RORγt (Homo sapiens)",
    "UNIT_ANNOTATION": "nM",
    "REPORTED_RESULT": 110
  },
  {
    "MOLECULE": "C[C@H](NS(=O)(=O)c1ccc(-c2sc(-c3nnc(CS(C)(=O)=O)o3)nc2C(=O)N2CCC(F)(F)CC2)c(Cl)c1Cl)C(F)(F)F",
    "SYSTEM_TESTED": "full-length human RORγt (Homo sapiens)",
    "UNIT_ANNOTATION": "nM",
    "REPORTED_RESULT": 55
  },
  {
    "MOLECULE": "C[C@H](NS(=O)(=O)c1ccc(-c2sc(-c3cc(CC(C)(C)C(=O)O)on3)nc2C(=O)N2CC(F)(F)C[C@@H]2C)c(C(F)F)c1F)C(F)(F)F",
    "SYSTEM_TESTED": "full-length human RORγt (Homo sapiens)",
    "UNIT_ANNOTATION": "nM",
    "REPORTED_RESULT": 170
  }
]

Moving on to another compound below.
Measured IC50, "CC[C@H](NS(=O)(=O)c1ccc(-c2sc(-c3nnc(C(C)(C)O)o3)nc2C(=O)N2CCC(F)(F)CC2)c(Cl)c1)C(F)(F)F" : 55
